What IC50 was measured for each of the following?
- tgt: Recombinant Cat D (Homo sapiens (Human), UniProt P07339)
- Sequence (P07339 65-412): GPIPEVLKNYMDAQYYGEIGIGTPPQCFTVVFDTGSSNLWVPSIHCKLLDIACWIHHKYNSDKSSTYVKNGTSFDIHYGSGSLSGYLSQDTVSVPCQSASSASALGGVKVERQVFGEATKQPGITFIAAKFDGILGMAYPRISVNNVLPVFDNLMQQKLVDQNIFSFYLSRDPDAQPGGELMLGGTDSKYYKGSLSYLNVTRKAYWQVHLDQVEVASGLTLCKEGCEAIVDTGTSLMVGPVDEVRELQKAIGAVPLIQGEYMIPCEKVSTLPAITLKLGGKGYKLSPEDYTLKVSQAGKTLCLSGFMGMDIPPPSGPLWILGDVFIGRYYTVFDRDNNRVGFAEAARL
- procedureSummary: In vitro enzymatic Cathepsin D (Cat D) FRET assay
- Format: biochemical
- conditionSummary: Cathepsin D FRET enzyme assay; read-out: IC50 IP (μM) CatD
Kindly answer with a numeric value in µM, unit omitted.

Given C[C@]1(c2cc(Nc3nccc4cc(C#N)cnc34)cc(F)c2F)N=C(N)S[C@@]2(CF)C[C@H]21 , state its recorded IC50.
204

Given C#CCOc1cnc(C(=O)Nc2cc(F)c(F)c([C@@]3(CF)N=C(N)S[C@@]4(CO)C[C@H]43)c2)cn1 , state its recorded IC50.
105

Given NC1=N[C@](CF)(c2cc(NC(=O)c3ccc(Cl)cn3)ccc2F)[C@@H]2C[C@@H]2S1 , state its recorded IC50.
74.5

Given COc1cnc(C(=O)Nc2cc(F)c(F)c([C@@]3(CF)N=C(N)S[C@H]4C[C@H]43)c2)cn1 , state its recorded IC50.
875

Given CC(C)Oc1cnc2c(Nc3cc(F)c(F)c([C@@]4(CF)N=C(N)S[C@H]5C[C@H]54)c3)nccc2n1 , state its recorded IC50.
494

Given COc1cnc2c(Nc3cc(F)c(F)c([C@@]4(C)N=C(N)S[C@@]5(CO)C[C@H]54)c3)ncnc2c1 , state its recorded IC50.
975

Given C[C@]1(c2cc(Nc3ncnc4cc(C#N)cnc34)cc(F)c2F)N=C(N)S[C@@]2(C(F)F)C[C@@H]12 , state its recorded IC50.
133

Given C[C@]1(c2cc(Nc3ncnc4cc(C#N)cnc34)ccc2F)N=C(N)S[C@@H]2[C@H]1C2(F)F , state its recorded IC50.
720

###

What IC50 was measured for each of the following?
- tgt: human recombinant BACE2 (Homo sapiens (Human), UniProt Q9Y5Z0)
- Sequence (Q9Y5Z0 63-518): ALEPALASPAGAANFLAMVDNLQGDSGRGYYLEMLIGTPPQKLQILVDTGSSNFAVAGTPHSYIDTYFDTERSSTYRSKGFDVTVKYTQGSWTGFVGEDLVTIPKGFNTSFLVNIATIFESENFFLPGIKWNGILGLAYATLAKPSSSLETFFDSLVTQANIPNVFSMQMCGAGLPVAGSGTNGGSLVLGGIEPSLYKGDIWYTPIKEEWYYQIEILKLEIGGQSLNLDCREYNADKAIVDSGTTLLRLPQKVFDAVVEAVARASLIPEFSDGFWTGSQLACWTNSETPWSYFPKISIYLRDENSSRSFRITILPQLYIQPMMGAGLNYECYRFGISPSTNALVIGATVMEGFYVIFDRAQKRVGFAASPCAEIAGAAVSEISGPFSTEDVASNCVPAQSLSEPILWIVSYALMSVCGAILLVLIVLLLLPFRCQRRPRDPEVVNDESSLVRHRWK
- procedureSummary: In vitro enzymatic BACE2 FRET assay
- Format: biochemical
- conditionSummary: BACE2 FRET enzyme assay; read-out: IC50 IP (μM) BACE2 enzyme
Kindly answer with a numeric value in µM, unit omitted.

Given C[C@]1(c2cc(Nc3ncnc4cc(C#N)cnc34)ccc2F)N=C(N)S[C@@H]2[C@H]1C2(F)F , state its recorded IC50.
0.023

Given C#CCOc1cnc(C(=O)Nc2ccc(F)c([C@@]3(CF)N=C(N)S[C@@]4(CO)C[C@H]43)c2)c(C)n1 , state its recorded IC50.
0.0174

Given COc1cnc(C(=O)Nc2ccc(F)c([C@@]3(CF)N=C(N)S[C@@]4(CO)C[C@H]43)c2)c(C)n1 , state its recorded IC50.
0.0295

Given COc1cnc2c(Nc3cc(F)c(F)c([C@@]4(C)N=C(N)S[C@@]5(CF)C[C@H]54)c3)ncnc2c1 , state its recorded IC50.
0.025

###

- tgt: human recombinant BACE1 (Homo sapiens (Human), UniProt P56817)
- Sequence (P56817 46-501): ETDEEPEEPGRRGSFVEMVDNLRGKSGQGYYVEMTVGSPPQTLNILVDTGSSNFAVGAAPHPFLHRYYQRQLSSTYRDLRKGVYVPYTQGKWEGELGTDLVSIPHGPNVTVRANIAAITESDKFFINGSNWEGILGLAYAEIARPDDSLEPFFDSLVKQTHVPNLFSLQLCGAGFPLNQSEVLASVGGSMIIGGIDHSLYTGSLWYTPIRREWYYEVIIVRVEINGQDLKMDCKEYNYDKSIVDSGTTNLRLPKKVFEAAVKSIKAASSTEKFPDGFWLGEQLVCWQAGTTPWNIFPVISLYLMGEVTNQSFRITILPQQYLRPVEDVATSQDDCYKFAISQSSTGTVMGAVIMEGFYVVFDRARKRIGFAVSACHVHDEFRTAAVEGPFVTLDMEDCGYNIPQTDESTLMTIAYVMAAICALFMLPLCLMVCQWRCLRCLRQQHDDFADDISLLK
- procedureSummary: In vitro enzymatic BACE1 FRET assay
- Type: biochemical
- conditionSummary: read-out: IC50 IP (μM) BACE1 enzyme
propertyLabel: IC50 (µM)
Kindly answer with a numeric value in µM, unit omitted.

Given C#CCOc1cnc(C(=O)Nc2ccc(F)c([C@@]3(C)N=C(N)S[C@@]4(C(=O)NCC)C[C@H]43)c2)cn1 [Example 1017] , state its recorded IC50.
0.000266

Given C#CCOc1cnc(C(=O)Nc2cc(F)c(F)c([C@@]3(C)N=C(N)S[C@@]4(C(N)=O)C[C@H]43)c2)cn1 [Example 919] , state its recorded IC50.
0.000199

Given COC[C@]12C[C@H]1[C@@](C)(c1cc(Nc3nccc4cc(OCc5ncc(Cl)s5)cnc34)cc(F)c1F)N=C(N)S2 [Example 735] , state its recorded IC50.
0.0412

Given Cc1nc(COc2cnc3c(Nc4ccc(F)c([C@@]5(C)N=C(N)S[C@@]6(CF)C[C@H]65)c4)nccc3n2)no1 [Example 828] , state its recorded IC50.
0.00496

Given CN(C)C(=O)COc1cnc2c(Nc3cc(F)c(F)c([C@@]4(C)N=C(N)S[C@@]5(C(F)F)C[C@@H]45)c3)nccc2n1 [Example 878] , state its recorded IC50.
0.231

Given Cc1nc(OCC(F)(F)F)cnc1C(=O)Nc1ccc(F)c([C@@]2(C)N=C(N)S[C@@]3(C(F)F)C[C@@H]23)c1 [Example 623] , state its recorded IC50.
0.00575

Given COC[C@]12C[C@H]1[C@@](C)(c1cc(NC(=O)c3cnc(OCC4CC4)cn3)cc(F)c1F)N=C(N)S2 [Example 1021] , state its recorded IC50.
0.000918

###

- tgt: Recombinant Cat D (Homo sapiens (Human))
- procedureSummary: In vitro enzymatic Cathepsin D (Cat D) FRET assay
- Assay type: biochemical
- conditionSummary: read-out: IC50 IP (μM) CatD
The threshold is 600 µM. Values of IC50 beneath it are tagged y; values meeting or exceeding it are tagged n.

Is it true that IC50 reported for CC(C)[C@H](C)NC(=O)[C@]12C[C@H]1[C@@](C)(c1cc(NC(=O)c3cnc(OCC(F)(F)F)cn3)ccc1F)N=C(N)S2 [Example 974] is less than 600 µM?
y

Is it true that IC50 reported for C#CCOc1cnc2c(Nc3cnc(F)c([C@@]4(C)N=C(N)S[C@@]5(COC)C[C@H]54)c3)nccc2n1 [Example 848] is less than 600 µM?
n

Is it true that IC50 reported for C#CCOc1cnc2c(Nc3cnc(F)c([C@@]4(C)N=C(N)S[C@@]5(CO)C[C@H]54)c3)ncnc2c1 [Example 670] is less than 600 µM?
n

Is it true that IC50 reported for Cc1nc(COc2cnc3c(Nc4cc(F)c(F)c([C@@]5(C)N=C(N)S[C@@]6(C(F)F)C[C@@H]56)c4)nccc3n2)no1 [Example 883] is less than 600 µM?
y

###

- Test system: Aβ40 in conditioned medium of cells stably expressing Amyloid Precursor Protein (APP)
- procedureSummary: In vitro BACE-1 cell-based assay (Aβ40 sandwich ELISA)
- conditionSummary: BACE1 cell-based assay; read-out: IC50 IP (μM) BACE1 cell
propertyLabel: log10(IC50) (log10 of the value in µM)
Recorded IC50 (log10, µM)

Given C[C@]1(c2cc(Nc3ncnc4cc(Cl)cnc34)cc(F)c2F)N=C(N)S[C@@]2(CO)C[C@H]21 , state its recorded log10(IC50).
-1.99

Given COc1cnc2c(Nc3cc(F)c(F)c([C@@]4(CF)N=C(N)S[C@H]5C[C@H]54)c3)nccc2n1 , state its recorded log10(IC50).
-0.85

Given C[C@]1(c2cc(Nc3nccc4cc(Cl)cnc34)cc(F)c2F)N=C(N)S[C@@]2(CO)C[C@H]21 , state its recorded log10(IC50).
-2.07

Given C[C@]1(c2cc(Nc3nccc4cc(C#N)cnc34)cc(F)c2F)N=C(N)S[C@@]2(CF)C[C@H]21 , state its recorded log10(IC50).
-2.12

Given COC[C@]12C[C@H]1[C@@](CF)(c1cc(Nc3nccc4cc(C#N)cnc34)cc(F)c1F)N=C(N)S2 , state its recorded log10(IC50).
-1.79

Given NC1=N[C@](CF)(c2cc(Nc3nncc4cc(Br)cnc34)ccc2F)C2C[C@@H]2S1 (stereo in doubt) , state its recorded log10(IC50).
-1.68

Given COC[C@]12C[C@H]1[C@@](C)(c1cc(Nc3ncnc4cc(OC)cnc34)cc(F)c1F)N=C(N)S2 , state its recorded log10(IC50).
-2.11

Given C[C@]1(c2cc(Nc3nccc4cc(C#N)cnc34)cc(F)c2F)N=C(N)S[C@H]2C[C@H]21 , state its recorded log10(IC50).
-1.79

Given COc1cnc2c(Nc3cc(F)c(F)c([C@@]4(CF)N=C(N)S[C@H]5C[C@H]54)c3)ncnc2c1 , state its recorded log10(IC50).
-1.28

Given NC1=N[C@](CF)(c2cc(Nc3ncnc4cc(Cl)cnc34)ccc2F)[C@@H]2C[C@]2(CO)S1 , state its recorded log10(IC50).
-2.08

Given N#Cc1cnc2c(Nc3ccc(F)c([C@@]4(CF)N=C(N)S[C@@]5(CO)C[C@H]54)c3)ncnc2c1 , state its recorded log10(IC50).
-2.07

Given C[C@]1(c2cc(NC(=O)c3ccc(Cl)cn3)cnc2F)N=C(N)S[C@@]2(CF)C[C@H]21 , state its recorded log10(IC50).
-2.25

Given C#CCOc1cnc(C(=O)Nc2cc(F)c(F)c([C@@]3(CF)N=C(N)S[C@H]4C[C@H]43)c2)c(C)n1 , state its recorded log10(IC50).
-1.67

Given N#Cc1cnc2c(Nc3cc(F)c(F)c([C@@]4(CF)N=C(N)S[C@H]5C[C@H]54)c3)ncnc2c1 , state its recorded log10(IC50).
-1.69

Given COC[C@]12C[C@H]1[C@@](CF)(c1cc(Nc3ncnc4cc(Cl)cnc34)ccc1F)N=C(N)S2 , state its recorded log10(IC50).
-1.75

Given C#CCOc1cnc(C(=O)Nc2cc(F)c(F)c([C@@]3(C)N=C(N)S[C@H]4C[C@H]43)c2)c(C)n1 , state its recorded log10(IC50).
-1.66

Given COC[C@]12C[C@H]1[C@@](C)(c1cc(Nc3nccc4cc(C#N)cnc34)cc(F)c1F)N=C(N)S2 , state its recorded log10(IC50).
-2.42

Given NC1=N[C@](CF)(c2cc(NC(=O)c3ccc(Cl)cn3)ccc2F)[C@H]2C[C@@]2(CO)S1 , state its recorded log10(IC50).
-2.24

Given NC1=N[C@](CF)(c2cc(Nc3ncnc4cc(Cl)cnc34)ccc2F)[C@H]2C[C@@H]2S1 , state its recorded log10(IC50).
-1.62

Given NC1=N[C@](CF)(c2cc(Nc3ncnc4cc(Cl)cnc34)cc(F)c2F)[C@@H]2C[C@@H]2S1 , state its recorded log10(IC50).
-1.27

Given COc1cnc(C(=O)Nc2ccc(F)c([C@@]3(CF)N=C(N)S[C@@]4(CO)C[C@H]43)c2)c(C)n1 , state its recorded log10(IC50).
-1.87

Given COC[C@]12C[C@H]1[C@@](CF)(c1cc(NC(=O)c3ccc(Cl)cn3)ccc1F)N=C(N)S2 , state its recorded log10(IC50).
-2.19

Given CCOC(=O)[C@]12C[C@H]1[C@@](C)(c1cc(Nc3nccc4cc(Cl)cnc34)cc(F)c1F)N=C(N)S2 , state its recorded log10(IC50).
-0.24
